// GI50 lookup, one value per entry
# System: HOP-62 NSCLC
# assayOverview: NCI tumour cell line growth inhibition, 384-well format

Past entries and their recorded results:
recordSmiles	measuredResult
CC1(C)OCCn2c1nc1c(N3CCOCC3)nc(-c3cnc(N)nc3)nc12	771 nM
O=C(c1ccc(F)c(F)c1Nc1ccc(I)cc1F)N1CC(O)([C@@H]2CCCCN2)C1	403 nM
CC(=O)c1cc2c(o1)C(=O)c1ccccc1C2=O	37.5 nM

Now for another entry.
IN: For the compound C[C@H]1Oc2cc(cnc2N)-c2c(nn(C)c2C#N)CN(C)C(=O)c2ccc(F)cc21 , what GI50 is on record?
OUT: 15700 nM

====

# Test system: MALME-3M melanoma
# assayOverview: NCI tumour cell line growth inhibition, 384-well format; in the data active = GI50 below about 0.43 µM; inactive = the rest
Hi there, use one of these labels in your reply, thanks! 1 (active), -1 (inactive)

The examples below pair each entry with its known result.
recordSmiles	labelValue
C=Cc1c(C)c2cc3nc(cc4[nH]c(cc5nc(cc1[nH]2)C(C)=C5CCC(=O)O)c(CCC(=O)OC)c4C)[C@@]1(C)C3=CC=C(C(=O)OC)[C@H]1C(=O)OC	-1
CC(=O)c1cc2c(o1)C(=O)c1ccccc1C2=O	1
C[C@H]1Oc2cc(cnc2N)-c2c(nn(C)c2C#N)CN(C)C(=O)c2ccc(F)cc21	-1

# evaluate next
IN: Name the outcome recorded for O=C(c1c(F)ccc(NS(=O)(=O)N2CC[C@@H](F)C2)c1F)c1c[nH]c2ncc(-c3cnc(C4CC4)nc3)cc12 in the assay.
OUT: 1

====

# System: NCI-H226 lung
# assayOverview: NCI tumour cell line growth inhibition, 384-well format
resultType: TGI (µM)
Please state the figure in µM; there is no need to write the unit.

Worked set:
recordSmiles	TGI / µM
C=Cc1c(C)c2cc3nc(cc4[nH]c(cc5nc(cc1[nH]2)C(C)=C5CCC(=O)O)c(CCC(=O)OC)c4C)[C@@]1(C)C3=CC=C(C(=O)OC)[C@H]1C(=O)OC	3.36
O=C(c1ccc(F)c(F)c1Nc1ccc(I)cc1F)N1CC(O)([C@@H]2CCCCN2)C1	6.32

Now for another entry.
IN: # get_value(readout='TGI', item= CC1(C)OCCn2c1nc1c(N3CCOCC3)nc(-c3cnc(N)nc3)nc12 )
OUT: 2.9

====

# System: DU-145 prostate
# assayOverview: NCI tumour cell line growth inhibition, 384-well format
resultType: GI50

Sample answers from the record:
recordSmiles	targetDesc	GI50
C=Cc1c(C)c2cc3nc(cc4[nH]c(cc5nc(cc1[nH]2)C(C)=C5CCC(=O)O)c(CCC(=O)OC)c4C)[C@@]1(C)C3=CC=C(C(=O)OC)[C@H]1C(=O)OC	DU-145 prostate	2.22 µM
C[C@H]1Oc2cc(cnc2N)-c2c(nn(C)c2C#N)CN(C)C(=O)c2ccc(F)cc21	DU-145 prostate	49.8 µM
O=C(c1ccc(F)c(F)c1Nc1ccc(I)cc1F)N1CC(O)([C@@H]2CCCCN2)C1	DU-145 prostate	1.25 µM

Proceed to the following item.
IN: What does the data say about its GI50? Entry: O=C(c1c(F)ccc(NS(=O)(=O)N2CC[C@@H](F)C2)c1F)c1c[nH]c2ncc(-c3cnc(C4CC4)nc3)cc12
OUT: 4.58 µM

====

List of TGI values.
# Test system: SK-MEL-28 melanoma
# assayOverview: NCI tumour cell line growth inhibition, 384-well format

Consider the following illustrative entries.
recordSmiles	measuredResult
CC1(C)OCCn2c1nc1c(N3CCOCC3)nc(-c3cnc(N)nc3)nc12	5.42 µM
O=C(c1ccc(F)c(F)c1Nc1ccc(I)cc1F)N1CC(O)([C@@H]2CCCCN2)C1	0.0163 µM
C[C@H]1Oc2cc(cnc2N)-c2c(nn(C)c2C#N)CN(C)C(=O)c2ccc(F)cc21	> 100 µM

# context switch: different compound, same TGI
IN: What TGI value was documented for this compound, C=Cc1c(C)c2cc3nc(cc4[nH]c(cc5nc(cc1[nH]2)C(C)=C5CCC(=O)O)c(CCC(=O)OC)c4C)[C@@]1(C)C3=CC=C(C(=O)OC)[C@H]1C(=O)OC ?
OUT: 4.25 µM

====

# Tested on: HCT-15 colon
# assayOverview: NCI tumour cell line growth inhibition, 384-well format
resultType: TGI (µM)
Write the value in µM as a bare number.

These solved cases illustrate the format of a correct answer.
recordSmiles	targetDesc	TGI (µM)
C=Cc1c(C)c2cc3nc(cc4[nH]c(cc5nc(cc1[nH]2)C(C)=C5CCC(=O)O)c(CCC(=O)OC)c4C)[C@@]1(C)C3=CC=C(C(=O)OC)[C@H]1C(=O)OC	HCT-15 colon	3.32
O=C(c1ccc(F)c(F)c1Nc1ccc(I)cc1F)N1CC(O)([C@@H]2CCCCN2)C1	HCT-15 colon	9.73
O=C(c1c(F)ccc(NS(=O)(=O)N2CC[C@@H](F)C2)c1F)c1c[nH]c2ncc(-c3cnc(C4CC4)nc3)cc12	HCT-15 colon	20.9

Moving on to another compound below.
IN: Please provide the recorded TGI for CC(=O)c1cc2c(o1)C(=O)c1ccccc1C2=O , tested on HCT-15 colon.
OUT: 0.294

====

TGI listing for selected molecules.
# Test system: HOP-92 NSCLC
# assayOverview: NCI tumour cell line growth inhibition, 384-well format
The reply should contain only the number, in µM.

IN: Form entry - test system: HOP-92 NSCLC; read-out: TGI; molecule: O=C(c1c(F)ccc(NS(=O)(=O)N2CC[C@@H](F)C2)c1F)c1c[nH]c2ncc(-c3cnc(C4CC4)nc3)cc12
OUT: 25.1

IN: Look up TGI with HOP-92 NSCLC for this molecule: CC(=O)c1cc2c(o1)C(=O)c1ccccc1C2=O
OUT: 1.39

IN: Request - read-out TGI | tested on HOP-92 NSCLC | molecule O=C(c1ccc(F)c(F)c1Nc1ccc(I)cc1F)N1CC(O)([C@@H]2CCCCN2)C1
OUT: 0.599

IN: Fill in the recorded TGI for this molecule, with HOP-92 NSCLC as test system: C[C@H]1Oc2cc(cnc2N)-c2c(nn(C)c2C#N)CN(C)C(=O)c2ccc(F)cc21
OUT: 67.6

====

# System: NCI-H460 NSCLC
Please state which outcome applies, choosing from true (active), false (inactive)

Solved cases (3 shown):
recordSmiles	labelValue
O=C(c1ccc(F)c(F)c1Nc1ccc(I)cc1F)N1CC(O)([C@@H]2CCCCN2)C1	false
C=Cc1c(C)c2cc3nc(cc4[nH]c(cc5nc(cc1[nH]2)C(C)=C5CCC(=O)O)c(CCC(=O)OC)c4C)[C@@]1(C)C3=CC=C(C(=O)OC)[C@H]1C(=O)OC	false
CC(=O)c1cc2c(o1)C(=O)c1ccccc1C2=O	true

Let's switch to this compound now.
IN: Tell me the assay call for C[C@H]1Oc2cc(cnc2N)-c2c(nn(C)c2C#N)CN(C)C(=O)c2ccc(F)cc21 please.
OUT: false

====

# Tested on: SF-295 CNS
# assayOverview: NCI tumour cell line growth inhibition, 384-well format
resultType: TGI
Enter the number, and then the unit.

Known results for compounds:
recordSmiles	TGI
O=C(c1ccc(F)c(F)c1Nc1ccc(I)cc1F)N1CC(O)([C@@H]2CCCCN2)C1	12.2 µM
CC(=O)c1cc2c(o1)C(=O)c1ccccc1C2=O	0.255 µM
C=Cc1c(C)c2cc3nc(cc4[nH]c(cc5nc(cc1[nH]2)C(C)=C5CCC(=O)O)c(CCC(=O)OC)c4C)[C@@]1(C)C3=CC=C(C(=O)OC)[C@H]1C(=O)OC	2.94 µM

Next, consider the following compound.
IN: Give its TGI value. Item: O=C(c1c(F)ccc(NS(=O)(=O)N2CC[C@@H](F)C2)c1F)c1c[nH]c2ncc(-c3cnc(C4CC4)nc3)cc12
OUT: 19.8 µM

====

# System: TK-10 renal
# assayOverview: NCI tumour cell line growth inhibition, 384-well format
resultType: TGI

Sample records with TGI:
recordSmiles	measuredResult
O=C(c1ccc(F)c(F)c1Nc1ccc(I)cc1F)N1CC(O)([C@@H]2CCCCN2)C1	10.9 µM
O=C(c1c(F)ccc(NS(=O)(=O)N2CC[C@@H](F)C2)c1F)c1c[nH]c2ncc(-c3cnc(C4CC4)nc3)cc12	35.4 µM
CC1(C)OCCn2c1nc1c(N3CCOCC3)nc(-c3cnc(N)nc3)nc12	3.68 µM

The record that follows has no TGI shown yet.
IN: What does the record list as TGI for C[C@H]1Oc2cc(cnc2N)-c2c(nn(C)c2C#N)CN(C)C(=O)c2ccc(F)cc21 ?
OUT: > 100 µM

====

# Test system: PC-3 prostate
# assayOverview: NCI tumour cell line growth inhibition, 384-well format
Readings of TGI for the listed compounds

Consider the worked cases shown below.
recordSmiles	targetDesc	TGI
O=C(c1ccc(F)c(F)c1Nc1ccc(I)cc1F)N1CC(O)([C@@H]2CCCCN2)C1	PC-3 prostate	19.8 µM
CC1(C)OCCn2c1nc1c(N3CCOCC3)nc(-c3cnc(N)nc3)nc12	PC-3 prostate	6.92 µM
C[C@H]1Oc2cc(cnc2N)-c2c(nn(C)c2C#N)CN(C)C(=O)c2ccc(F)cc21	PC-3 prostate	> 100 µM
C=Cc1c(C)c2cc3nc(cc4[nH]c(cc5nc(cc1[nH]2)C(C)=C5CCC(=O)O)c(CCC(=O)OC)c4C)[C@@]1(C)C3=CC=C(C(=O)OC)[C@H]1C(=O)OC	PC-3 prostate	4.24 µM

IN: Value lookup for TGI; key = CC(=O)c1cc2c(o1)C(=O)c1ccccc1C2=O
OUT: 1.14 µM
